Please provide measured IC50 for the entries that follow.
TEST SYSTEM: Protease (Human T-cell leukemia virus type I, UniProt Q82134, C109A/C90A/L40I)
Sequence (Q82134 entry or part of it C109A/C90A/L40I): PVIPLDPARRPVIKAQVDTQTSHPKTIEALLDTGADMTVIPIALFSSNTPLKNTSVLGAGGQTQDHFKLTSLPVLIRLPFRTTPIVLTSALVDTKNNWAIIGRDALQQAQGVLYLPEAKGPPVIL
ASSAY EXPLANATION: Inhibition of HTLV-1 protease L40I/C90A/C109A mutant using dodecapeptide as substrate by HPLC analysis
Starred links: 1 amine or outer side, 2 acyl side, 3 side chain; linkers in the order of their positions; H or OH if unused. Non-standard residues stand in square brackets, D forms with d. Residues, ends and D or L forms follow the SMILES beside them. *: point of attachment. X1 = CC(C)C[C@H](C(=O)[*:2])[C@H](O)C[C@H]1CCCN1[*:1]; CO = O=C([*:1])[*:2]; NHBn = c1ccc(CN*)cc1

Completed entries (count: 6):
{"columns": ["COMPOUND", "ASSAY METRIC", "ASSAY RESULT"],
 "data": [
  ["CC[C@@H](C)[C@@H](NC(=O)[C@@H](CC(C)C)[C@H](O)C[C@H]1CCCN1C(=O)CCC(C)C)C(=O)N[C@@H](C(=O)N1CCC[C@@H]1C(=O)N1CCC[C@@H]1C(N)=O)C(C)C", "IC50", "520 µM"],
  ["CC[C@@H](C)[C@@H](NC(=O)[C@@H](CC(C)C)[C@H](O)C[C@H]1CCCN1C(=O)CCc1ccccc1)C(=O)N[C@@H](C(=O)N1CCC[C@@H]1C(=O)N1CCC[C@@H]1C(N)=O)C(C)C", "IC50", "160 µM"],
  ["CC[C@@H](C)[C@@H](NC(=O)[C@@H](CC(C)C)[C@H](O)C[C@H]1CCCN1C(=O)[C@H](NC(=O)[C@H](N)CCC(N)=O)[C@H](C)CC)C(=O)N[C@@H](C(=O)N1CCC[C@@H]1C(=O)N1CCC[C@@H]1C(N)=O)C(C)C", "IC50", "2000 µM"],
  ["CC[C@@H](C)[C@@H](N)C(=O)N1CCC[C@@H]1C[C@@H](O)[C@H](CC(C)C)C(=O)N[C@@H](C(=O)N[C@@H](C(=O)N1CCC[C@@H]1C(=O)N1CCC[C@@H]1C(N)=O)C(C)C)[C@H](C)CC", "IC50", "1500 µM"],
  ["CC[C@@H](C)[C@@H](NC(=O)[C@@H](CC(C)C)[C@H](O)C[C@H]1CCCN1C(=O)/C=C/c1ccccc1)C(=O)N[C@@H](C(=O)N1CCC[C@@H]1C(=O)N1CCC[C@@H]1C(N)=O)C(C)C", "IC50", "290 µM"],
  ["CC[C@@H](C)[C@@H](NC(=O)[C@@H](CC(C)C)[C@H](O)C[C@H]1CCCN1C(=O)NCc1ccccc1)C(=O)N[C@@H](C(=O)N1CCC[C@@H]1C(=O)N1CCC[C@@H]1C(N)=O)C(C)C ({NHBn-CO}-[X1][dI][dV][dP][dP]-NH2)", "IC50", "160 µM"]
]}

I would be grateful if you could provide IC50 for each of the following entries.
1. CC[C@@H](C)[C@@H](NC(=O)[C@@H](CC(C)C)[C@H](O)C[C@H]1CCCN1C(=O)[C@H](NC(C)=O)[C@H](C)CC)C(=O)N[C@@H](C(=O)N1CCC[C@@H]1C(=O)N1CCC[C@@H]1C(N)=O)C(C)C (Ac-[dI][X1][dI][dV][dP][dP]-NH2)
2. CC[C@@H](C)[C@@H](NC(=O)[C@@H](CC(C)C)[C@H](O)C[C@H]1CCCN1C(=O)C(C)(C)C)C(=O)N[C@@H](C(=O)N1CCC[C@@H]1C(=O)N1CCC[C@@H]1C(N)=O)C(C)C
3. CC[C@@H](C)[C@@H](NC(=O)[C@@H](CC(C)C)[C@H](O)C[C@H]1CCCN1C(=O)OCc1ccccc1)C(=O)N[C@@H](C(=O)N1CCC[C@@H]1C(=O)N1CCC[C@@H]1C(N)=O)C(C)C
4. CC[C@@H](C)[C@@H](NC(=O)[C@@H](CC(C)C)[C@H](O)C[C@H]1CCCN1C(=O)c1ccccc1)C(=O)N[C@@H](C(=O)N1CCC[C@@H]1C(=O)N1CCC[C@@H]1C(N)=O)C(C)C

["110 µM", "1000 µM", "380 µM", "1100 µM"]

Reported IC50 for Protease (Human T-cell leukemia virus type I, UniProt Q82134, C109A/C90A/L40I), given CCCC(CCC)C(=O)N1CCC[C@@H]1C[C@@H](O)[C@H](CC(C)C)C(=O)N[C@@H](C(=O)N[C@@H](C(=O)N1CCC[C@@H]1C(=O)N1CCC[C@@H]1C(N)=O)C(C)C)[C@H](C)CC ?
420 µM
